I'd appreciate it if you could supply pIC50 values for the items below.
# EXPERIMENTAL SYSTEM: CyclinA2/CDK2 (Homo sapiens, UniProt P20248)
# Construct: purchased CRELUX Protein Services
# PROCEDURE DETAILS: Fluorescence Polarization (FP) competitive binding assay, Cyclin A2/Cdk2;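 further: plates equilibrated two hours at room temperature before polarization reading, IC50 fitted from eight-concentration compound titration curves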
# EXPERIMENTAL SETUP: 8 nM Cyclin A2/Cdk2, 2 nM FAM probe; average of 2-3 independent experiments; read-out: Cyclin A FP IC50
*1 amine or outer side, *2 acyl side, *3 side chain or, on linkers, in order; H or OH if unused. Where a SMILES comes first, the peptide text is derived from it. Bridges are numbered along the chain shown (N, C = ends). [ ]: non-standard residue; d: D form. The star is where a group is joined. NMehhhLys(Me) = CN([C@@H](CCCCCCCN(C)[*:3])C(=O)[*:2])[*:1]; X194 = CN([C@@H](Cc1cc(Cl)ccc1-c1ccnnc1)C(=O)[*:2])[*:1]; NMe(hhhLys) = CN([C@@H](CCCCCCCN[*:3])C(=O)[*:2])[*:1]; X33 = CN([C@@H](Cc1cc(Cl)cc2c1OCCO2)C(=O)[*:2])[*:1]; cBuCO(3,3-F2-1-CF3) = O=C(C1(C(F)(F)F)CC(F)(F)C1)*; Pro(trans-4-F) = O=C(O)[C@@H]1C[C@@H](F)CN1; Gly(cPr) = N[C@H](C(=O)O)C1CC1
Hey, just a heads up that pIC50 is the negative log base 10 of the concentration in molar.

pIC50 lookup needed for CC(C)C[C@@H]1NC(=O)[C@@H](N(C)C(=O)[C@@H](NC(=O)[C@@H]2C[C@@H](F)CN2C(=O)C2(C(F)(F)F)CCC2)C2CC2)CC=CCCCCNC(=O)[C@H](Cc2cc(Cl)ccc2-c2cnn(C3COC3)c2)N(C)C1=O , thanks.
7.30

pIC50 lookup needed for CC(C)C[C@@H]1NC(=O)[C@@H](N(C)C(=O)[C@@H](NC(=O)[C@@H]2C[C@@H](F)CN2C(=O)C2(C(F)(F)F)CC(F)(F)C2)C2CC2)CCCCCCCNC(=O)[C@H](Cc2cc(Cl)cc3c2OCCO3)N(C)C1=O [Example 330] ({cBuCO(3,3-F2-1-CF3)}-[Pro(trans-4-F)][Gly(cPr)][NMe(hhhLys)]L[X33]; lactam 3-C) , thanks.
7.52

pIC50 lookup needed for CC(C)C[C@@H]1NC(=O)[C@@H](N(C)C(=O)[C@@H](NC(=O)[C@@H]2C[C@@H](F)CN2C(=O)C2(C(F)(F)F)CCC2)C2CC2)CC=CCCCCNC(=O)[C@H](Cc2cc(Cl)ccc2Oc2ncccn2)N(C)C1=O (single isomer, unassigned) [Example 156-P1] , thanks.
6.05

pIC50 lookup needed for CC(C)C[C@@H]1NC(=O)[C@@H](N(C)C(=O)[C@@H](NC(=O)[C@@H]2C[C@@H](F)CN2C(=O)C2(C(F)(F)F)CC(F)(F)C2)C2CC2)CCCCCCCN(C)C(=O)[C@H](Cc2cc(Cl)ccc2-c2ccnnc2)N(C)C1=O [Example 292] ({cBuCO(3,3-F2-1-CF3)}-[Pro(trans-4-F)][Gly(cPr)][NMehhhLys(Me)]L[X194]; lactam 3-C) , thanks.
7.22
